Molecular target: recombinant human LTA4 hydrolase (rhLTA4H) (Homo sapiens)
Sequence (P09960 1-611): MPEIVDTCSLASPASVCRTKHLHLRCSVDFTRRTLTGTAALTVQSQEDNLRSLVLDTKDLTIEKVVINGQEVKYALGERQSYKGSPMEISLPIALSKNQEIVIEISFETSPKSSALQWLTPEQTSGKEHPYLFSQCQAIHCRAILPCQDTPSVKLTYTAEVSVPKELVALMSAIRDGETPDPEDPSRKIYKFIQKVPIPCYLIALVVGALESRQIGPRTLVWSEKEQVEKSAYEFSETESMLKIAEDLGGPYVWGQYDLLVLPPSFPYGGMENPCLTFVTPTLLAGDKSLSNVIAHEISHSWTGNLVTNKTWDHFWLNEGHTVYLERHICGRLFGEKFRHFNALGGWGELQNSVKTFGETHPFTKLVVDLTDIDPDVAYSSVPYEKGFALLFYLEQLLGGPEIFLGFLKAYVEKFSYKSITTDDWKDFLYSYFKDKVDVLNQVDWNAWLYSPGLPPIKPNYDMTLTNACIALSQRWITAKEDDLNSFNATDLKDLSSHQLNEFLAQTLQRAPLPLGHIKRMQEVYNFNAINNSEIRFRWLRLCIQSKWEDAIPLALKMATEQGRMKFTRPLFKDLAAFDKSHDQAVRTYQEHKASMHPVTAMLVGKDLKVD
Assay: Recombinant Human LTA4 Hydrolase Assay for LTA4 Hydrolase Inhibitor Activity
Conditions: average of results obtained; LTB4 quantified by enzyme-linked immunoassay
Let's look at some compounds and their measured pKi.
// field semantics: pKi = negative decimal log of concentration (mol/L)

Take a look at these entries with their results.
1. CC(=O)N1[C@@H]2CC[C@H]1C[C@@H](NCc1ccc(Oc3nc4ccc(F)cc4s3)cc1)C2 [Example 175]: 7.28
2. CC(C)(O)C(=O)N1C[C@H]2C[C@@H]1CN2Cc1ccc(Oc2nc3ccccc3s2)cc1 [Example 24]: 7.28
3. NC(=O)N1CC2CCN(Cc3ccc(Oc4nc5ccccc5s4)cc3)CC2C1 (single isomer, unassigned; (-)) [Example 142B]: 7.02
4. O=C(C1CCOCC1)N1CC2CN(Cc3ccc(Oc4nc5ccccc5s4)cc3)CC2C1 (centres unmarked) [Example 103]: 7.29

Turning to the following compound.
Query: Report the value of pKi obtained on recombinant human LTA4 hydrolase (rhLTA4H) (Homo sapiens) for O=C(c1ccno1)N1CC2CN(Cc3ccc(Oc4nc5ccccc5s4)cc3)CC2C1 (centres unmarked) [Example 114] .
Response: 7.48
